# credit: ChEMBL document CHEMBL3351528

target_or_test_system: UniProtKB P28223
Sequence (P28223 whole entry): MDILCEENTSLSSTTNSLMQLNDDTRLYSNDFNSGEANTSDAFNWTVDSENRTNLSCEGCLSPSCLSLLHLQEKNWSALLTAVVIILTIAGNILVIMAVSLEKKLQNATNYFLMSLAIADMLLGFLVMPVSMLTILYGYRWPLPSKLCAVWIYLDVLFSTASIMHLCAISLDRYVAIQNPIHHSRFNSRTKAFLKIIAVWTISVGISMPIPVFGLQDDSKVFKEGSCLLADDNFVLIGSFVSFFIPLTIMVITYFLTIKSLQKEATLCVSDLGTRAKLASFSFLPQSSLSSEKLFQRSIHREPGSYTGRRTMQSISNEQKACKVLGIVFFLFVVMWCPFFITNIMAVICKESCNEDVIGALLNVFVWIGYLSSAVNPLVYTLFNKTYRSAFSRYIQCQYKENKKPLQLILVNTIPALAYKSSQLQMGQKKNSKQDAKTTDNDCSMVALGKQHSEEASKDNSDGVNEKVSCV
endpoint: Ki (nM)
Field format: number, assumed nM, no unit text.

Example results:
[[record]]
mol = "Cc1cccc(N2CCN(CCCCNC(=O)c3cc4ccccc4o3)CC2)c1"
number = 15.3

[[record]]
mol = "O=C(NCCCCN1CCN(c2cccc(C(F)(F)F)c2)CC1)c1cc2ccccc2[nH]1"
number = 4

[[record]]
mol = "COc1cccc(N2CCN(CCCCNC(=O)c3cccc(C)n3)CC2)c1"
number = 238

[[record]]
mol = "O=C(NCCCCN1CCN(c2cccc3ccccc23)CC1)c1ccccc1"
number = 3

[[record]]
mol = "O=C(NCCCCN1CCN(c2ccccc2)CC1)[C@H]1CCc2ccccc2N1"
number = 50


Prompt: Please give the measured Ki for this compound: O=C(NCCCCN1CCN(c2ccccc2)CC1)c1cccnc1
Completion: 216

Prompt: Please give the measured Ki for this compound: COc1cccc(N2CCN(CCCCNC(=O)c3ccccn3)CC2)c1
Completion: 179

Prompt: Please give the measured Ki for this compound: Cc1cccc(N2CCN(CCCCNC(=O)c3ccc4ccccc4n3)CC2)c1
Completion: 17

Prompt: Please give the measured Ki for this compound: Cc1cccc(N2CCN(CCCCNC(=O)[C@H]3CCc4ccccc4N3)CC2)c1
Completion: 77

Prompt: Please give the measured Ki for this compound: O=C(NCCCCN1CCN(c2ccccc2)CC1)c1ccccn1
Completion: 100

Prompt: Please give the measured Ki for this compound: COc1cccc(N2CCN(CCCCNC(=O)c3cc4ccccc4o3)CC2)c1
Completion: 40

Prompt: Please give the measured Ki for this compound: COc1cccc(N2CCN(CCCCNC(=O)c3ccccn3)CC2)n1
Completion: 140

Prompt: Please give the measured Ki for this compound: O=C(NCCCCN1CCN(c2cnc3ccccc3c2)CC1)c1cc2ccccc2cn1
Completion: 1000
